Values were extracted from PubChem BioAssay.

Assay: nonspecific calcium rise without TRPC4 – cell-based, HEK293 mu-opioid receptor line, counter-screen for TRPC4 activator project, confirmation (AID 449723);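 note: counter screen cells carry the mu-opioid receptor alone and lack TRPC4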
Conditions: HEK293 mu-opioid cells, Fluo-4 calcium fluorescence, at 10 µM
Active and inactive are the calls of the source.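 Rule for the calls: active = hit in primary screen, with calcium signal over 5 SD above buffer well mean in both duplicates; inactive = the rest.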
The reply should be one of these categories: true (active), false (inactive)

Please let me know the test result on file for `Nc1c(C(=O)c2ccccc2)sc2nsc(SCCN3CCCC3)c12` .
true

Another compound to check: COc1ccc(C2NC(C(=O)O)Cc3c2[nH]c2ccccc32)cc1CN1CCN(c2ccc(F)cc2)CC1 (centres undefined)
false

And for `c1ccc(Nc2ncnc3sc4c(c23)CCC4)cc1` ?
false

Another compound to check: `CCCN(c1nc(C)cc(OC)n1)S(=O)(=O)c1ccccc1`
false

Record: `Cc1ccc(C(C)C)c(OCCCCN2CCNCC2)c1`
false

Next record, please: `Cc1c(N)c(C(C)(C)C)cc(C(C)(C)C)c1[N+](=O)[O-]`
false

Another compound to look at: `COC(=O)[C@@]12CCCN1[C@H](c1ccc(-c3ccc(OC)cc3)cc1)[C@@H]1C(=O)N(C)C(=O)[C@@H]12`
false

Likewise for `Cc1ccc(/C=N/NC(=S)NC2CCCCC2)o1` ?
false

Can you check CCN1CCCC1CNCc1ccc(Cl)cc1Cl (centres undefined) next?
false

Record: CC(Nc1nc(N2CCNCC2)nc2ccccc12)c1ccccc1 (centres undefined)
false

What do you have for `S=C(NCCc1ccccn1)NC1CCCCC1` ?
false

Now try CC(Sc1nc2sc3c(c2c(=O)n1-c1ccccc1)CCCC3)C(=O)O (centres undefined) .
false

And `Cc1ccc(C)c(-n2cc(CNCCCn3cccn3)c(-c3ccccc3)n2)c1` ?
false

Queued: `CC(=O)c1ccc2c(c1)N(C)c1ccccc1S2`
false

Note, next up: `CCOC(=O)c1oc2ccccc2c1CN1CCCCC1`
false

Same lookup for `CCCCCCCNC(=O)COc1ccc2c(c1)C(=O)CC(C)(C)O2` , please.
false

Item: `COc1cccc(N2CC(O)=C(c3nc4ccccc4c(=O)[nH]3)C2=N)c1`
false

And `c1ccc2c3c([nH]c2c1)CCNC3` ?
false

Note, next up: NC(N)=NN=C1CCC(c2ccccc2)CC1 (centres undefined)
false

Okay, and `CCN(CC)CC(=O)Nc1ccccc1SCC(=O)Nc1ccsc1C(=O)OC` ?
false

Now the same for `O=C(COC(=O)c1c(Cl)cccc1Cl)Nc1ccccc1Br`
false

Please answer likewise for `CCc1cc(=O)oc2c(CNCc3ccccc3F)c(O)c(Cl)cc12`
false

Same read-out for `CCc1ccc2nc3nc(C)cc(C)c3c(N)c2c1` ?
false

Could you do the same for `c1ccc(-c2nc(NCc3cccnc3)c3ccccc3n2)cc1` , please?
false

====

Test system: TRPC4 beta (transient receptor potential cation channel C4), mouse
Assay: TRPC4 cation channel opening, retest – cell-based, Fluo4 calcium, HEK293 TRPC4beta/mu-opioid, duplicates, 10 µM, confirmation (AID 2426)
Settings: Fluo4 calcium fluorescence, at 10 µM
Activity calls are given as the source filed them.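 Rule for the calls: active = fluorescence ratio normalized to control raised more than 50% in primary screen plus both repeat runs; inactive = the rest.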
Outcome field: choose from active, inactive

Hi, sorry to bother you, what did the test record for `CN1CCC(=O)N([C@H](CSc2ccc(Br)cc2)Cc2ccccc2)CC1` ?
inactive

Likewise for `Cc1[nH]nc(-c2ccc(O)cc2O)c1-c1ccc(Cl)cc1` ?
inactive

Next entry: CC(=O)OCC1O[C@@H](O[C@@H]2C[C@H]3C(C)(C)[C@H](OC(C)=O)CC[C@]3(C)[C@H]3CC[C@]45C[C@]4(CC[C@H]5[C@@H](C)C[C@@H](O)[C@H](O)C(C)(C)O)[C@@]32C)[C@H](O)[C@@H](O)[C@@H]1O (stereo not given in full)
active

Entry `O=Cc1c(N2CCCCC2)nc2ccccn2c1=O` please
inactive

# repeat for c1csc(-c2nc(NCC3CCCO3)c3ccccc3n2)c1 (stereo not given)
inactive

Repeat with CN(C)C(CNC(=S)Nc1ccccc1Cl)c1cccnc1 (stereo not given)
active

Would you mind doing `O=C(C1CCN(S(=O)(=O)c2cccnc2)CC1)N1CCN(c2ccc(Cl)cc2)CC1` as well?
inactive

Then this compound: COc1cc(CN(C)CC2CCCN(CCc3ccccc3F)C2)cc(Cl)c1OC (stereo not given)
inactive

Now try `CCn1c2ccccc2c2cc(/C=N/NC(=O)c3cc(O)cc(O)c3)ccc21` .
inactive

Next compound up: `OCCCNc1c2ccccc2nc2ccccc12`
inactive
